Measured kon, listed per entry.
Target: T1, recombinant human CD83 extracellular domain with His tag (hCD83ECD-His) (human, UniProt Q01151 20-144)
T1 construct: extracellular domain; Expressed in CHO cells and purified by IMAC; also called recombinant human CD83ECD-His; recombinant CD83; not shown: His tag
T1 sequence (looked up): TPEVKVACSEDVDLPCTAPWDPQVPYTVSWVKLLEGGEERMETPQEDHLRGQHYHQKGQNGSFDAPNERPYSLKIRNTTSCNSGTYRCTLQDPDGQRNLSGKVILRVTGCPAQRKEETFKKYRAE
Assay: BiaCore SPR, Fab over immobilised hCD83ECD, 1:1 model with mass transfer
// return numeric value only (unit: M⁻¹ s⁻¹, not printed)

{"columns": ["Binder", "kon (M⁻¹ s⁻¹)"],
 "data": [
  ["3C12.WT Fab fragment (Fab, V domains shown, also called 3C12 Fab; wildtype 3C12 Fab) VH: EVQLQESGGGVVQPGRSLRLSCAASGFTFSSYAMHWVRQAPGKGLEWVAVISYDGSNKYYADSVKGRFTISRDNSKNTLYLQMNSLRAEDTAMYYCARHYYYGMDVWGQGTTLTVSS VL: EIVMTQSPSLLSASLGDRVTITCRASQGIKNYFAWYQQRPGKAPKLLIYATSNLQSGVPSRFSGSGSGTEFTLTISSLQPEDFATYYCQQLGAYPLTFGGGTKLELKR", 900000],
  ["3C12.D Fab fragment (Fab, V domains shown) VH: EVQLQESGGGVVQPGRSLRLSCAASGFTFSSYAMHWVRQAPGKGLEWVAVISYDGSNKYYADSVKGRFTISRDNSKNTLYLQMNSLRAEDTAMYYCARHYYYGMDVWGQGTTLTVSS VL: EIQMTQSPSSLSASVGDRVTITCRASQGISSWLAWYQQKPGKAPKLLIYAASSLQSGVPSRFSGSGSGTEFTLTISSLQPDDFATYYCQKLSSYPYTFGGGTKVELKR", "1.1e+06"],
  ["3C12.E Fab fragment (Fab, V domains shown) VH: EVQLQESGGGVVQPGRSLRLSCAASGFTFSSYAMHWVRQAPGKGLEWVAVISYDGSNKYYADSVKGRFTISRDNSKNTLYLQMNSLRAEDTAMYYCARHYYYGMDVWGQGTTLTVSS VL: EIVLTQSPSSLSASVGDRVTITCRASQGISNYLAWYQQKPGKVPKLLIYAASTLQSGVPSRFSGSGSGTHFTLTISSLQPEDVATYYCQKCNSAPYTFGQGTKVELKR", "1.2e+06"],
  ["3C12.C Fab fragment (Fab, V domains shown) VH: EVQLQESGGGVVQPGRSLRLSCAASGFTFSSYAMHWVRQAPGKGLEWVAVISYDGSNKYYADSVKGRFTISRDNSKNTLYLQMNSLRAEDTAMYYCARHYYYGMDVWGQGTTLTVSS VL: EIVLTQSPSSLSASVGDRVTITCRASQGIRNYLAWYQQKPGKVPKLLIYATSTLQSGVPSRFSGSRSGTEFTLTISSLHPEDFATYYCQQVDRFPYTFGQGTKVELKR", "1.3e+06"]
]}

Could you now look at the following binder, please?
Task: Look up kon: 3C12.B Fab fragment (Fab, V domains shown) VH: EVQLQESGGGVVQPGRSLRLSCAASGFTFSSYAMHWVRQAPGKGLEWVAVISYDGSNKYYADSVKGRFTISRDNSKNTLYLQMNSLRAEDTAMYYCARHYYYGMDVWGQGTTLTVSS VL: EVVMTQSPSFLSASIGDRVSITCRTSQGISNHLAWYQQKPGKAPKLLIYAASSLQSGVPSRFSGSGSGTDFTLTISSLQPEDIATYYCQQVNSYPYTFGQGTRLELKR
Result: 320000
